Kindly supply the reported pIC50 values for the records listed here.
The read-out pIC50 is expressed as -log10 of concentration in moles per litre.

Entry Nc1ncc(Sc2nnc(COc3ccc4ccccc4c3)n2N=Cc2cccc([N+](=O)[O-])c2)s1 [Compound 12c] , bovine COX-1 (Ovis aries) data, pIC50 value: 4.90

Entry Nc1ncc(Sc2nnc(COc3ccc4ccccc4c3)n2N=Cc2ccccc2)s1 [Compound 12a] , bovine COX-1 (Ovis aries) data, pIC50 value: 5.01

Entry O=C(CCl)Sc1nnc(COc2ccc3ccccc3c2)n1N=Cc1cccc([N+](=O)[O-])c1 [Compound 10c] , bovine COX-1 (Ovis aries) data, pIC50 value: 4.99
